biological target: QNV; assay: BIAcore
reported-metric: Kd (nM)
Just the number in nM, nothing appended.

binder LY6G6D (other) NRMRCYNCGGSPSSSCKEAVTTCGEGRPQPGLEQIKLPGNPPVTLIHQHPACVAAHHCNQVETESVGDVTYPAHRDCYLGDLCNS , Kd observed: 0.22
